- Tested on: E. coli TESEC Alr+ wild-type control
- experimentalProtocol: growth (OD600 after 10 h); higher = more growth (less inhibition)
- measurementContext: compound 0.1 mM; raw OD600 reference: median of DMSO wells 0.241, cell-free background 0.041
Structures can show the parent of a compound that is named as a salt.
Where growth equals or exceeds 0.2, the correct label is criterion met; where it does not, the label is criterion not met.

Q. Entry CCN[C@H]1C[C@H](C)S(=O)(=O)c2sc(S(N)(=O)=O)cc21 [Dorzolamide hydrochloride] : is its growth no less than 0.2?
A. criterion met

Q. Entry Cc1cnc(C(=O)NCCc2ccc(S(=O)(=O)NC(=O)NC3CCCCC3)cc2)cn1 [Glipizide] please
A. criterion met

Q. Entry Cc1c(C)c2c(c(C)c1O)CCC(C)(COc1ccc(CC3SC(=O)NC3=O)cc1)O2 (stereo not drawn) [Troglitazone] please
A. criterion not met

Next:
Q. Entry Cc1ccc(-c2cc(C(F)(F)F)nn2-c2ccc(S(N)(=O)=O)cc2)cc1 [Celecoxib] : is its growth no less than 0.2?
A. criterion not met

Q. Entry CC1(C)O[C@@H]2C[C@H]3[C@@H]4C[C@H](F)C5=CC(=O)C=C[C@]5(C)[C@@]4(F)[C@@H](O)C[C@]3(C)[C@]2(C(=O)CO)O1 [Fluocinolone acetonide] please
A. criterion not met

Q. Entry CN(C)CCN(Cc1cccs1)c1ccccn1 [Methapyrilene hydrochloride] please
A. criterion met

Q. Entry Cc1onc(-c2c(Cl)cccc2Cl)c1C(=O)N[C@@H]1C(=O)N2[C@@H]1SC(C)(C)[C@@H]2C(=O)O [Dicloxacillin sodium salt hydrate] please
A. criterion met

----------
- Tested on: E. coli TESEC Mtb Alr
- experimentalProtocol: growth (OD600 after 10 h); higher = more growth (less inhibition)
- measurementContext: arabinose 100 nM; compound 0.1 mM; raw OD600 reference: median of DMSO wells 0.413, cell-free background 0.052
Where a name gives a salt, the structure may show the parent alone.
Where growth equals or exceeds 0.4, the correct label is yes; where it does not, the label is no.

Q. Entry COc1ccc(C(=O)c2ccccc2O)c(O)c1 : is its growth no less than 0.4?
A. no

Next:
Q. Entry CC(=O)N[C@@H](CC(=O)N[C@@H](CCC(=O)O)C(=O)O)C(=O)O : is its growth no less than 0.4?
A. yes

Q. Entry CCN(CC)C(=O)/C(C#N)=C/c1cc(O)c(O)c([N+](=O)[O-])c1 please
A. no

Q. Entry CC1CS(=O)(=O)CCN1/N=C/c1ccc([N+](=O)[O-])o1 (centres undefined) please
A. no

Q. Entry CC[N+](C)(CC)CCOC(=O)C1c2ccccc2Oc2ccccc21 [Methantheline bromide] please
A. yes

Q. Entry Nc1ccc(S(=O)(=O)Nc2ccnn2-c2ccccc2)cc1 please
A. yes

Q. Entry CCCCC(CC)CNC(=N)NC(=N)NCCCCCCNC(=N)NC(=N)NCC(CC)CCCC (centres undefined) [Alexidine dihydrochloride] please
A. no

Q. Entry CCn1cc(C(=O)O)c(=O)c2cnc(N3CCCC3)nc21 please
A. no

----------
- System: E. coli TESEC Mtb Asd
- experimentalProtocol: growth (OD600 after 10 h); higher = more growth (less inhibition)
- measurementContext: arabinose induction (level): Low; compound 0.1 mM; raw OD600 reference: median of DMSO wells 0.417, cell-free background 0.041
Counter-ions that a name gives are not always drawn.
Where growth equals or exceeds 0.3, the correct label is condition met; where it does not, the label is condition not met.

Q. Entry COc1ccccc1N1CCN(CCCCNC(=O)c2ccc3ccccc3c2)CC1 : is its growth no less than 0.3?
A. condition not met

Q. Entry NC(=O)OCC(COC(N)=O)c1ccccc1 [Felbamate] please
A. condition met

Q. Entry Cc1cc2c(cc1S(N)(=O)=O)S(=O)(=O)CCC2 please
A. condition met

Q. Entry COc1cc(NS(=O)(=O)c2ccc(N)cc2)ncn1 please
A. condition met

Q. Entry CC/C(=C(\c1ccccc1)c1ccc(OCCN(C)C)cc1)c1ccccc1 [Tamoxifen citrate] please
A. condition not met

Now turn to the next molecule.
Q. Entry CC[C@H]1OC(=O)[C@H](C)[C@@H](O[C@H]2C[C@@](C)(OC)[C@@H](O)[C@H](C)O2)[C@H](C)[C@@H](O[C@@H]2O[C@H](C)C[C@H](N(C)C)[C@H]2O)[C@](C)(O)C[C@@H](C)C(=O)[C@H](C)[C@@H](O)[C@]1(C)O : is its growth no less than 0.3?
A. condition not met

----------
Here, each record is paired with measured growth data.
- System: E. coli TESEC Mtb DapB
- experimentalProtocol: growth (OD600 after 10 h); higher = more growth (less inhibition)
- measurementContext: arabinose induction (level): High; compound 0.1 mM; raw OD600 reference: median of DMSO wells […], cell-free background 0.041
Structures can show the parent of a compound that is named as a salt.
Note: the reply should be a number with no unit written.

Answered examples (5):
Q. Entry CCCC(C(=O)OCCN(CC)CC)(c1ccccc1)c1ccccc1 [Proadifen hydrochloride] : reported growth = ?
A. 0.126

Q. Entry c1ccc2[nH]c(-c3cscn3)nc2c1 please
A. 0.186

Q. Entry CC(=O)NS(=O)(=O)c1ccc(N)cc1 [Sulfacetamide sodic hydrate] please
A. 0.188

Q. Entry O=c1[nH]c(=O)n([C@H]2C[C@H](O)[C@@H](CO)O2)cc1C(F)(F)F please
A. 0.164

Q. Entry Nc1nc2n[nH]nc2c(=O)[nH]1 please
A. 0.235

Next:
Q. Entry CC(NCCC(c1ccccc1)c1ccccc1)c1ccccc1 (centres undefined) [Fendiline hydrochloride] : reported growth = ?
A. 0.0461

Q. Entry CCCCN(CCCC)CCC(O)c1cc2c(Cl)cc(Cl)cc2c2cc(C(F)(F)F)ccc12 (centres undefined) [Halofantrine hydrochloride] please
A. 0.259

Q. Entry CN1CCN(CCCN2c3ccccc3Sc3ccc(S(=O)(=O)N(C)C)cc32)CC1 [Thioproperazine dimesylate] please
A. 0.2

Q. Entry CCOc1ccc(NC(C)=O)cc1 please
A. 0.208

----------
- Tested on: E. coli TESEC Mtb Asd
- experimentalProtocol: growth (OD600 after 10 h); higher = more growth (less inhibition)
- measurementContext: arabinose induction (level): High; compound 0.1 mM; raw OD600 reference: median of DMSO wells 0.331, cell-free background 0.041
Where a name gives a salt, the structure may show the parent alone.
assayMetric: growth
Note: the reply should be a number with no unit written.

Answered examples (4):
Q. Entry CN(C)CC/C=C1/c2ccccc2Sc2ccc(Cl)cc21 [Chlorprothixene hydrochloride] : reported growth = ?
A. 0.0468

Q. Entry CNC(=C[N+](=O)[O-])NCCSCc1csc(CN(C)C)n1 please
A. 0.368

Q. Entry C[N+](C)(C)CCCCCC[N+](C)(C)C [Hexamethonium dibromide dihydrate] please
A. 0.344

Q. Entry COc1ccc(C(=O)NCc2cccnc2)cc1C(=O)NCc1cccnc1 [Picotamide monohydrate] please
A. 0.256

# ---- query compound ----
Q. Entry COc1ccccc1OCC(O)CN1CCN(CC(=O)Nc2c(C)cccc2C)CC1 (stereo not given) : reported growth = ?
A. 0.171

----------
- System: E. coli TESEC Alr+ wild-type control
- experimentalProtocol: growth (OD600 after 10 h); higher = more growth (less inhibition)
- measurementContext: compound 0.1 mM; raw OD600 reference: median of DMSO wells 0.49, cell-free background 0.052
Where a name gives a salt, the structure may show the parent alone.
Where growth equals or exceeds 0.5, the correct label is criterion met; where it does not, the label is criterion not met.

As a guide, the following entries are already answered.
Q. Entry COc1c(N2CCNC(C)C2)c(F)cc2c(=O)c(C(=O)O)cn(C3CC3)c12 (stereo unspecified) [Gatifloxacin] : is its growth no less than 0.5?
A. criterion not met

Q. Entry CC[N+](C)(C)Cc1ccccc1Br [Bretylium tosylate] please
A. criterion met

Q. Entry CN(N=O)C(=O)N[C@H]1C(O)O[C@H](CO)[C@@H](O)[C@@H]1O (mixture of isomers) [Streptozotocin] please
A. criterion not met

Q. Entry NC1CCN(c2nc3c(cc2F)c(=O)c(C(=O)O)cn3-c2ccc(F)cc2F)C1 (stereo unspecified) [Tosufloxacin hydrochloride] please
A. criterion not met

Q. Entry CO[C@@]1(NC(=O)C2SC(=C(C(N)=O)C(=O)O)S2)C(=O)N2C(C(=O)O)=C(CSc3nnnn3C)CS[C@@H]21 (stereo partly specified) [Cefotetan] please
A. criterion not met

Q. Entry CC(C)(C)CC(C)(C)c1ccc(OCCOCC[N+](C)(C)Cc2ccccc2)cc1 [Benzethonium chloride] please
A. criterion not met

Q. Entry C#C[C@]1(O)CC[C@H]2[C@@H]3CCC4=Cc5oncc5C[C@]4(C)[C@H]3CC[C@@]21C [Danazol] please
A. criterion not met

Q. Entry CC(=O)O[C@]1(C(C)=O)CC[C@H]2[C@@H]3C=C(C)C4=CC(=O)CC[C@]4(C)[C@H]3CC[C@@]21C [Megestrol acetate] please
A. criterion not met

Q. Entry O=C1c2ccccc2S(=O)(=O)N1CCCCN1CCN(c2ncccn2)CC1 [Ipsapirone] please
A. criterion met

Q. Entry CC(C)n1c(/C=C/C(O)CC(O)CC(=O)O)c(-c2ccc(F)cc2)c2ccccc21 (stereo unspecified) [Fluvastatin sodium salt] please
A. criterion not met

Next:
Q. Entry CC(C)(Oc1ccc(CCNC(=O)c2ccc(Cl)cc2)cc1)C(=O)O [Bezafibrate] : is its growth no less than 0.5?
A. criterion not met

Q. Entry CC(C)Cc1ccc([C@H](C)C(=O)O)cc1 [S-(+)-ibuprofen] please
A. criterion met

Q. Entry Cc1ncc([N+](=O)[O-])n1CC(O)CCl (stereo unspecified) [Ornidazole] please
A. criterion not met

Q. Entry CC(=O)[C@H]1CC[C@H]2[C@@H]3C[C@H](C)C4=CC(=O)CC[C@]4(C)[C@H]3[C@@H](O)C[C@]12C [Medrysone] please
A. criterion not met

Q. Entry O=C(OCCOCCO)c1ccccc1Nc1cccc(C(F)(F)F)c1 [Etofenamate] please
A. criterion not met
